target: GLP-1R (Homo sapiens, UniProt P43220); assay: EC20 GLP-1(9-36) PAM cAMP assay: dose response of compound in the presence of fixed concentration of GLP-1(9-36); settings: GLP-1R CRE-bla CHO-K1 cells, compound dose response in presence of fixed concentration of GLP-1(9-36)
Sequence (P43220 24-463): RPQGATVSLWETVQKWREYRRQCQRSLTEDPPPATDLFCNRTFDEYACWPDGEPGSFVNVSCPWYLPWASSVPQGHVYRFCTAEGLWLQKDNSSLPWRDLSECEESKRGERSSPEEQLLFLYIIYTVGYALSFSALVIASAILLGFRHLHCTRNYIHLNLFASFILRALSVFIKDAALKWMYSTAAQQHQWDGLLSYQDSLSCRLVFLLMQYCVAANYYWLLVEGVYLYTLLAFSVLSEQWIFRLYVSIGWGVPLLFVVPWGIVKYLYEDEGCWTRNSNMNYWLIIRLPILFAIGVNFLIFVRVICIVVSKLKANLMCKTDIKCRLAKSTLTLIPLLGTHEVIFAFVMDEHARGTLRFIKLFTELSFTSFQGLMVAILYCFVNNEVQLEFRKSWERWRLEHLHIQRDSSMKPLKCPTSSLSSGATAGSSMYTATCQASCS
Sequence (P01275 100-127 partner limits assumed): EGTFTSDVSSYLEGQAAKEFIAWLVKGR
Measurement type: EC50

Here are 5 molecules together with their reported answers.
| Smiles input | EC50 |
| --- | --- |
| CCCCCCCOc1ccc(-c2cnc(-c3ccc(C[C@H](NC(=O)c4ccc(C(C)(C)C)s4)C(=O)NC(C)(C)CC(=O)O)cc3)nc2)cc1 | 800 to 2500 nM |
| CCCCCCCOc1ccc(-c2cnc(-c3ccc(C[C@H](NC(=O)c4ccc(N(C)C)cc4)C(=O)O)cc3)nc2)cc1 | 2500 to 5000 nM |
| CC(C)(C)c1ccc(-c2cnc(-c3ccc(C[C@H](NC(=O)c4ccc(C(C)(C)C)s4)C(=O)N[C@@H](CCC(N)=O)C(=O)O)cc3)nc2)cc1 | 800 to 2500 nM |
| CCCCCCCOc1ccc(-c2nnc(-c3ccc(C[C@H](NC(=O)c4ccc(C(C)(C)C)cc4)C(=O)O)cc3)o2)cc1 | 800 to 2500 nM |
| CCCCCCCOc1ccc(-c2cnc(-c3ccc(C[C@@H](NC(=O)c4ccc(C(C)(C)C)s4)C(=O)O)cc3)nc2)cc1 | 800 to 2500 nM |

Q: Quick one: EC50 for `CCCCCCCOc1ccc(-c2cnc(-c3ccc(C[C@H](NC(=O)c4ccc(CC(C)(C)C)cc4)C(=O)O)cc3)nc2)cc1` ?
A: 800 to 2500 nM

Q: Quick one: EC50 for `CCCCCCCOc1ccc(C2CCN(c3ccc(C[C@H](NC(=O)c4ccc(C(C)(C)C)cc4)C(=O)O)cc3)CC2)cc1` ?
A: 800 to 2500 nM

Q: Quick one: EC50 for `CCCCCCCOc1ccc(-c2cnc(-c3ccc(C[C@H](NC(=O)c4ccc(N)cc4)C(=O)O)cc3)nc2)cc1` ?
A: 800 to 2500 nM

Q: Quick one: EC50 for `CCCCCCCOc1ccc(-c2cnc(-c3ccc(C[C@H](NC(=O)c4ccc(C(C)(C)C)s4)C(=O)N[C@@H](Cc4cnc[nH]4)C(=O)O)cc3)nc2)cc1` ?
A: 800 to 2500 nM

Q: Quick one: EC50 for `CCCCCCCOc1ccc(N2CCN(c3ccc(C[C@H](NC(=O)c4ccc(C(C)(C)C)cc4)C(=O)O)cc3)CC2=O)cc1` ?
A: 2500 to 5000 nM
